In this section we review reported melting point values for a set of molecules.

Past entries and their recorded results:
molecule	melting point
CC(C)C(Cl)C(=O)Nc1c(C(=O)CC(=O)Nc2ccccn2)cccc1C(F)(F)F (stereo unspecified)	136 to 138 °C
COc1ccc(Oc2c(C)cc([N+](=O)[O-])cc2C)cc1	117 to 120 °C
Cn1c(SCCO)nnc1SCCO	87 to 88 °C

Form field melting point, entry CC(=O)NCC1CN(c2ccc(N3CCN(c4nc5ccccc5s4)CC3)c(F)c2)C(=O)O1 (stereo unspecified) : 239 to 240 °C

The recorded melting point for CCOC(=O)C1=C(C)NC(O)(C(F)(F)F)C(C(=O)OCC)C1c1cccc([N+](=O)[O-])c1 (stereo unspecified) is 120 to 121 °C

Reported melting point for Cn1cc(C(=O)c2cccc(Cl)c2)cc1C(=O)O was 214 °C

###

value-type: melting point

Example entries and their recorded answers appear below.
molecule	value-type	recorded-value
Cc1cc(C)c2nc(C)n(Cc3ccc(NCC4CCN(C(C)C)CC4)cc3)c2n1	melting point	134 to 136 °C
CC(=O)OCC(CCc1nc2nc(N)nc(SCCC(=O)c3ccccc3)c2[nH]1)COC(C)=O	melting point	130 to 131 °C
CC1=C(c2ccccc2)C(c2ccccc2OCc2ccccc2)C([N+](=O)[O-])=C(C)N1 (stereo not given)	melting point	189 °C
COc1cccc(C(=O)NCCc2ccc(-c3ccc(OC(C)(C)C(=O)O)cc3)cc2)c1	melting point	117 °C
Nc1n[nH]c2ccc(OCc3ccccc3)cc12	melting point	193 to 195 °C
C=C(C)Oc1nc(NCCSCc2ccco2)ncc1Cc1ccc(C)nc1	melting point	47 to 48 °C

Reported melting point of O=c1cc(C(F)(F)F)[nH]c(=O)n1-c1cc(O)c(Cl)cc1F : 68 to 72 °C

Lab book: melting point of CCCCC(=O)c1c(C)nc2cc(OC)c(OC)cc2c1-c1ccc(OC)c(OC)c1 noted as 119 to 120 °C

Entry under test: CCCN(c1ccncc1)N1C(=O)Cc2ccccc21 . Its melting point was 140 to 143 °C

Recorded melting point (molecule CCOC(=O)CCCSc1nccc(NC(N)=NCC(F)(F)F)n1 ): 120 to 122 °C

###

value-type: melting point

compound	recorded-value
O=C1CN(c2cncc(Cl)n2)CCN1	192 to 193 °C
NC(=O)c1csc(Cl)c1	138 to 139 °C
Cc1c(-c2ccccc2)oc2c(S(=O)(=O)N(C)CCO)cccc2c1=O	146 to 147 °C
Cc1c(NC(=O)c2ccnc(NCc3ccc(=O)[nH]c3)c2)cccc1C(F)(F)F	196 to 201 °C
COc1cc(C(C)C#Cc2c(C)nc(N)nc2N)cc(OC)c1OC (stereo not given)	191 to 193 °C
CC(C)c1nc2cc(COc3ccc(C=O)cc3)ccc2o1	86 to 88 °C

Reported melting point for Nc1ncnc2c1c(-c1cc(O)cc(F)c1)nn2Cc1oc2ccc(F)cc2c(=O)c1-c1cccc(F)c1 was 127 to 129 °C

melting point recorded for this compound, Nc1ccc2c(ccn2Cc2ccccc2)c1 , is 66 to 68 °C

Lab note: CCCNC(=O)C(C)Cc1ccc2cccc(Cc3ccc(C(=O)NS(=O)(=O)c4ccccc4C)cc3OC)c2c1 (stereo not given) gave melting point of 210 to 212 °C

Sure, the documented melting point for N#Cc1cnc2sc(Br)cc2c1Cl is 158 to 166 °C
